Molecular target: T1, EGFI-Cr1 A35T (human, UniProt P16422 24-63)
T1 construct: not shown: The fused constant region of human immunoglobulin gamma 1 heavy chain (Cr1)
T1 chain: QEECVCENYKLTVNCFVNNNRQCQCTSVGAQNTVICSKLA
Assay: direct ELISA, coated EGFI-Cr1 fusion, 0.1 µg/ml antibody
Each entry gets rule not met if its relative binding activity (% of WT) stays under 90%, and rule met if its relative binding activity (% of WT) is 90% or above.

murine monoclonal antibody 6D11 (antibody, mouse IgG1, V domains shown, Mouse IgG1, kappa, from hybridoma; also called m338-6D11.8) VH: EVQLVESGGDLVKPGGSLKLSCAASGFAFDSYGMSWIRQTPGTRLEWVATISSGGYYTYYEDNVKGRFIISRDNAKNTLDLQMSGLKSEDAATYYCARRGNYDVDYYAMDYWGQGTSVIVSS VL: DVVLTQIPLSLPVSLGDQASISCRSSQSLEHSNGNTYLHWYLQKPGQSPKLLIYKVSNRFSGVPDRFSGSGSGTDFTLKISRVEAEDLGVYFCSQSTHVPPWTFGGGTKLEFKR
rule not met
murine monoclonal antibody 1F10 (antibody, mouse IgG1, V domains shown, Mouse IgG1, lambda 1, from hybridoma; also called m338-1F10.3) VH: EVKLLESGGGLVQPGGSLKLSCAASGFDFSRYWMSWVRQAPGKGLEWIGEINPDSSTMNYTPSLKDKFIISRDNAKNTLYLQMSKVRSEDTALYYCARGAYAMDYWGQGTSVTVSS VL: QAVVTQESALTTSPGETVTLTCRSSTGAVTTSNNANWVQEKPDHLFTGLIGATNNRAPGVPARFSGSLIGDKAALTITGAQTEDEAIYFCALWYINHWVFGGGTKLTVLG
rule met
murine monoclonal antibody 12H8 (antibody, mouse IgG2a, V domains shown, Mouse IgG2a, kappa, from hybridoma; also called m342-12H8.3; m12H8) VH: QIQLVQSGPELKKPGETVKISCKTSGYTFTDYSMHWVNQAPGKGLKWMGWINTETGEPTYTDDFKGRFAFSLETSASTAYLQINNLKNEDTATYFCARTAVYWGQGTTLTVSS VL: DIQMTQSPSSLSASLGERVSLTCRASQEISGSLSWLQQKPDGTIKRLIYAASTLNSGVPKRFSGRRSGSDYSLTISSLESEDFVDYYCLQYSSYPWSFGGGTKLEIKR
rule met
murine monoclonal antibody 4D2 (antibody, mouse IgG1, V domains shown, Mouse IgG1, kappa, from hybridoma; also called m338-4D2.20) VH: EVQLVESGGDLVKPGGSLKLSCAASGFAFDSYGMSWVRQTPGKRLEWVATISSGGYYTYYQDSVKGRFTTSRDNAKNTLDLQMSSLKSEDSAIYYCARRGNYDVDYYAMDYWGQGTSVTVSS VL: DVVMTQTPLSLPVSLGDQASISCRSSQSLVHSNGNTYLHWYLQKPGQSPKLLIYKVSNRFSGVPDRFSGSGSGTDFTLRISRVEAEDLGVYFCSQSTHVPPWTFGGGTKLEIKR
rule not met

Task item: I'd appreciate it if you could say whether murine monoclonal antibody 2D11 (antibody, mouse IgG1, V domains shown, Mouse IgG1, kappa, from hybridoma; also called m322-2D11.19) VH: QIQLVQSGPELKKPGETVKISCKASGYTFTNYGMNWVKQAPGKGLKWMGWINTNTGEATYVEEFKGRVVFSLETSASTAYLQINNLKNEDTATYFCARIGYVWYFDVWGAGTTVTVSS VL: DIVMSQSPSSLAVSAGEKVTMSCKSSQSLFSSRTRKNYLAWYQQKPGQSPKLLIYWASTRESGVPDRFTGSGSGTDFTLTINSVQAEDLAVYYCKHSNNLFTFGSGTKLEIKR has relative binding activity (% of WT) at least equal to 90%.
Reply: rule met
